System: HCC38
Test: GRmax, 72 h; higher = less effect
parameter.measured: GRmax, 72 h
Answer format reminder: number followed by unit.

compound: N.N.[Cl][Pt][Cl] [Cisplatin] (max 10 µM)
GRmax, 72 h: -0.103 GR

Continue with the compound presented below.
Query string: Please report the recorded GRmax, 72 h for CC(=O)c1c(C)c2cnc(Nc3ccc(N4CCNCC4)cn3)nc2n(C2CCCC2)c1=O (max 3.162 µM) .
Result string: 0.147 GR

* * *

Tested on: MDAMB436
Assay: area over the GR curve, 72 h; higher = more effect
Outcome label depends on area over the GR curve relative to 0.3 GR: at/above gives yes (1), below gives no (0).

Use these answered entries as a reference point.
molecule: CO[C@H]1C[C@@H]2CC[C@@H](C)[C@@](O)(O2)C(=O)C(=O)N2CCCC[C@H]2C(=O)O[C@H]([C@H](C)C[C@@H]2CC[C@@H](OCCO)[C@H](OC)C2)CC(=O)[C@H](C)/C=C(\C)[C@@H](O)[C@@H](OC)C(=O)[C@H](C)C[C@H](C)/C=C/C=C/C=C/1C [Everolimus] (max 10 µM)
category: yes (1)

molecule: CC(C)NC[C@@H](C(=O)N1CCN(c2ncnc3c2[C@H](C)C[C@H]3O)CC1)c1ccc(Cl)cc1 [Ipatasertib/GDC0068] (max 10 µM)
category: no (0)

molecule: CNc1nc(-c2ccc3c(N)n[nH]c3c2)cc(N2C[C@@H](C(=O)NC3CCCCC3)CC[C@H]2C)n1 (max 10 µM)
category: no (0)

molecule: CN1CCN(CCOc2cc(OC3CCOCC3)c3c(Nc4c(Cl)ccc5c4OCO5)ncnc3c2)CC1 [Saracatinib/AZD0530] (max 10 µM)
category: no (0)

Query string: Does the reported area over the GR curve for Nc1ccc(-c2ccc3ncc4ccc(=O)n(-c5cccc(C(F)(F)F)c5)c4c3c2)cn1 [Torin2] (max 1 µM) fall at or above the 0.3 GR mark?
Result string: yes (1)

Query string: Does the reported area over the GR curve for `COc1cccc(OCCCN)c1-c1cc(Nc2cnc(C#N)cn2)n[nH]1` fall at or above the 0.3 GR mark?
Result string: yes (1)

* * *

Test system: SKBR3
Experiment: GRmax, 72 h; higher = less effect
parameter.measured: GRmax, 72 h (GR)
Reply with just the number (in GR).

Known results for compounds:
compound: O=C(CCCCCCC(=O)Nc1ccccc1)NO [Vorinostat] (max 10 µM)
study.target: SKBR3
GRmax, 72 h, GR: -0.632

compound: CCOc1cc2ncc(C#N)c(Nc3ccc(OCc4ccccn4)c(Cl)c3)c2cc1NC(=O)/C=C/CN(C)C [Neratinib/HKI272] (max 3.162 µM)
study.target: SKBR3
GRmax, 72 h, GR: -0.253

compound: COc1ccc2c(c1)[C@]1(C[C@H]1c1ccc3c(/C=C/c4ccc(CN5C[C@@H](C)O[C@@H](C)C5)cc4)n[nH]c3c1)C(=O)N2
study.target: SKBR3
GRmax, 72 h, GR: -0.0682

Continue with the compound presented below.
Query string: Please report the recorded GRmax, 72 h for CCc1cncnc1N1CCN(Cc2nc3ccc(C(F)(F)F)cc3[nH]2)CC1 (max 10 µM) .
Result string: 0.734

* * *

Tested on: MDAMB361
Test: GRmax, 72 h; higher = less effect;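 further: breast cell lines in 384-well plates, nine doses across a 10^4 range, Dye Drop imaging of viable cells vs DMSO and time-zero plates, GR 0 means no net growth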
GRmax, 72 h overview
Reply with just the number (in GR).

compound: CN(C)C/C=C/C(=O)Nc1ccc(C(=O)Nc2cccc(Nc3cc(-c4c[nH]c5ccccc45)ncn3)c2)cc1 [THZ-P1-2] (max 10 µM)
GRmax, 72 h / GR: 0.142
--
compound: CN(C)C(=O)c1cc2cnc(Nc3ccc(N4CCNCC4)cn3)nc2n1C1CCCC1 [LEE011/Ribociclib] (max 10 µM)
GRmax, 72 h / GR: 0.0436
--
compound: CO[C@@H](C)Cn1c(=O)n(C)c2cnc3ccc(-c4cncc(C(C)(C)O)c4)cc3c21 (max 10 µM)
GRmax, 72 h / GR: -0.988
--
compound: COc1cccc2c1C(=O)c1c(O)c3c(c(O)c1C2=O)C[C@@](O)(C(=O)CO)C[C@@H]3O[C@H]1C[C@H](N)[C@H](O)[C@H](C)O1 [Doxorubicin] (max 3.162 µM)
GRmax, 72 h / GR: -0.722
--
compound: CN1CC[C@H](c2c(O)cc(O)c3c(=O)cc(-c4ccccc4Cl)oc23)[C@H](O)C1 [Flavopiridol] (max 1 µM)
GRmax, 72 h / GR: -0.389

Continue with the compound presented below.
Query string: Form field - read-out: GRmax, 72 h; system: MDAMB361; submitted item: O=C(c1cc(Cc2n[nH]c(=O)c3ccccc23)ccc1F)N1CCN(C(=O)C2CC2)CC1 [Olaparib/AZD2281] (max 10 µM)
Result string: 0.0945

* * *

Test system: PDX1206
Test: area over the GR curve, 72 h; higher = more effect
parameter.measured: area over the GR curve (GR)
Reply with just the number (in GR).

Known results for molecules:
molecule: C=CCn1c(=O)c2cnc(Nc3ccc(N4CCN(C)CC4)cc3)nc2n1-c1cccc(C(C)(C)O)n1 [AZD1775] (max 10 µM)
parameter.measured: area over the GR curve
numeric.value: 0.455
--
molecule: COc1ccc2c(c1)[C@]1(C[C@H]1c1ccc3c(/C=C/c4ccc(CN5C[C@@H](C)O[C@@H](C)C5)cc4)n[nH]c3c1)C(=O)N2
parameter.measured: area over the GR curve
numeric.value: 0.504
--
molecule: CN1CCN(C(=O)c2ccc3cc(CCNc4ncnc5ccc(C#N)cc45)ccc3c2)CC1 [senexin b] (max 10 µM)
parameter.measured: area over the GR curve
numeric.value: 0.37

Query string: Form field - read-out: area over the GR curve; system: PDX1206; submitted item: CC(=O)c1c(C)c2cnc(Nc3ccc(N4CCN(CCOCCOCCOCCNC(=O)COc5cccc6c5C(=O)N(C5CCC(=O)NC5=O)C6=O)CC4)cn3)nc2n(C2CCCC2)c1=O (stereo unspecified) [BSJ-03-123] (max 10 µM)
Result string: 0.163

Query string: Form field - read-out: area over the GR curve; system: PDX1206; submitted item: CCCCOc1c(C(=O)c2c(F)cc(C)cc2F)c[nH]c2nncc1-2 (max 10 µM)
Result string: 0.691

Query string: Form field - read-out: area over the GR curve; system: PDX1206; submitted item: `COc1cccc(OCCCN)c1-c1cc(Nc2cnc(C#N)cn2)n[nH]1`
Result string: 0.427

* * *

area over the GR curve overview
Tested on: HCC1806
Assay: area over the GR curve, 72 h; higher = more effect;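 further: Dye Drop or Deep Dye Drop imaging of viable cells in 384-well plates (Hoechst nuclei, LIVE/DEAD dye), nine half-log doses, GR normalized to DMSO controls and time-zero plates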
Reply with just the number (in GR).

Known results for compounds:
compound: CC(=O)c1c(C)c2cnc(Nc3ccc(N4CCNCC4)cn3)nc2n(C2CCCC2)c1=O (max 3.162 µM)
area over the GR curve, GR: 0.146
//
compound: COc1cccc(OCCCN)c1-c1cc(Nc2cnc(C#N)cn2)n[nH]1
area over the GR curve, GR: 1.39
//
compound: Cc1nn(C)c(COc2ccc(N3CCN(S(=O)(=O)N(C)C)CC3)cc2)c1-c1cccc2c(CCCOc3cccc4ccccc34)c(C(=O)O)n(CCN3CCOCC3)c12 (max 10 µM)
area over the GR curve, GR: -0.0123

Query string: Form field - read-out: area over the GR curve; system: HCC1806; submitted item: CN1CCN(CCOc2cc(OC3CCOCC3)c3c(Nc4c(Cl)ccc5c4OCO5)ncnc3c2)CC1 [Saracatinib/AZD0530] (max 10 µM)
Result string: 0.233

Query string: Form field - read-out: area over the GR curve; system: HCC1806; submitted item: COc1cc2c(Oc3ccc4[nH]c(C)cc4c3F)ncnc2cc1OCCCN1CCCC1 [Cediranib/AZD2171] (max 10 µM)
Result string: 0.0606

Query string: Form field - read-out: area over the GR curve; system: HCC1806; submitted item: C[C@@H]1COCCN1c1cc(C2([S@](C)(=N)=O)CC2)nc(-c2cc[nH]c3nccc2-3)n1 [AZD6738] (max 10 µM)
Result string: 0.307

Query string: Form field - read-out: area over the GR curve; system: HCC1806; submitted item: Nc1cc(C(F)(F)F)c(-c2cc(N3CCOCC3)nc(N3CCOCC3)n2)cn1 [Buparlisib/NVP-BKM120] (max 10 µM)
Result string: 0.305

Query string: Form field - read-out: area over the GR curve; system: HCC1806; submitted item: Cc1nc(Nc2ncc(C(=O)Nc3c(C)cccc3Cl)s2)cc(N2CCN(CCO)CC2)n1 [Dasatinib] (max 10 µM)
Result string: 0.63

Query string: Form field - read-out: area over the GR curve; system: HCC1806; submitted item: Cc1cc(C(C)Nc2ccccc2)c2nc(N3CCOCC3)cc(=O)n2c1 (centres undefined) [TGX221] (max 10 µM)
Result string: -0.02

Query string: Form field - read-out: area over the GR curve; system: HCC1806; submitted item: CCc1cnn2c(NCc3ccc[n+]([O-])c3)cc(N3CCCC[C@H]3CCO)nc12 (max 1 µM)
Result string: 0.643

Query string: Form field - read-out: area over the GR curve; system: HCC1806; submitted item: C=CC(=O)Nc1ccc(C(=O)Nc2[nH]nc3c2CN(C(=O)N[C@H](CN(C)C)c2ccccc2)C3(C)C)cc1 [YKL-5-124] (max 10 µM)
Result string: 1.01

Query string: Form field - read-out: area over the GR curve; system: HCC1806; submitted item: CCC(=O)Nc1ccc(C(=O)Nc2ccc(Nc3ncc4c(n3)N(C)c3ccc(C)cc3C(=O)N4C)cc2)cc1 [FMF-03-145-1]
Result string: 1.08

Query string: Form field - read-out: area over the GR curve; system: HCC1806; submitted item: C=CCn1c(=O)c2cnc(Nc3ccc(N4CCN(C)CC4)cc3)nc2n1-c1cccc(C(C)(C)O)n1 [AZD1775] (max 10 µM)
Result string: 0.847

Query string: Form field - read-out: area over the GR curve; system: HCC1806; submitted item: CN1CCN(C(=O)c2ccc3cc(CCNc4ncnc5ccc(C#N)cc45)ccc3c2)CC1 [senexin b] (max 10 µM)
Result string: 0.0969
